Ref: patent US20240025875A1

# Experiment: Pharmacokinetic determination in SD rats (i.v. and i.g.)
# Assay type: in vivo
# Condition Notes: male, Sprague-Dawley (SD), rat, plasma, iv, 1 mg/kg
Readout Type: half-life (min)
Give bare numbers, in min.

* Cc1ccc(CN2CCc3cc(Oc4c(Cl)cc(-n5ncc(=O)[nH]c5=O)cc4Cl)ccc3C2=O)cc1 | 61.2
* O=C1c2ccc(Oc3c(Cl)cc(-n4ncc(=O)[nH]c4=O)cc3Cl)cc2CCN1c1ccc(F)cc1 | 175
* O=C1c2ccc(Oc3c(Cl)cc(-n4ncc(=O)[nH]c4=O)cc3Cl)cc2CCN1Cc1ccc(Cl)cc1 | 217
* O=C1c2ccc(Oc3c(Cl)cc(-n4ncc(=O)[nH]c4=O)cc3Cl)cc2CCN1c1ccccc1F | 127
* O=C1c2ccc(Oc3c(Cl)cc(-n4ncc(=O)[nH]c4=O)cc3Cl)cc2CCN1Cc1ccc(C(F)(F)F)cc1 | 508

Value sought for every listed molecule: half-life.
1. O=C1c2ccc(Oc3c(Cl)cc(-n4ncc(=O)[nH]c4=O)cc3Cl)cc2CCN1Cc1cccc(OC(F)(F)F)c1
2. O=C1c2ccc(Oc3c(Cl)cc(-n4ncc(=O)[nH]c4=O)cc3Cl)cc2CCN1Cc1ccncc1

# output
[571, 69.6]
